# Test system: EKVX NSCLC
# Protocol: NCI-60 one-dose screen, 48 h
# Condition context: 10 µM unless noted
The panel holds about 83,000 compounds, 20% with a hit somewhere; the sample as a whole holds those more often. Calls of active or inactive are those of the source. The calls were made as follows: active = growth percent below 10; inactive = the rest.
// classify into True for active, False for inactive

IN: Hello, I am checking results. What call was entered for "O=C1NC(=S)NC(=O)C1=Cc1cn(Cc2ccccn2)c2ccccc12" ?
OUT: False

IN: Field: outcome | Entry: "O=C1CCCN1c1cccc2cccnc12"
OUT: False

IN: What was the test verdict on Cc1ccc(C2C3CC4CCCCC4N3[C@@]3(C(=O)Nc4cc(Cl)ccc43)C2C(=O)c2nc3ccccc3[nH]2)cc1 (some centres undefined) ?
OUT: False

IN: Could you please tell me the result logged for "NC(=S)N/N=C(\c1ccc(Cl)cc1)C1CC1" in this assay?
OUT: False

IN: Record lookup: outcome of this test for "O=S(=O)(NCCCNc1nccc(-c2c(-c3cccc(O)c3)nc3occn23)n1)c1ccc(F)cc1" ?
OUT: False

IN: For this molecule, state the assay outcome: "COc1cc(-c2cc(=O)oc3cc(O)ccc23)c(OC)c2c1OCO2"
OUT: False

IN: In this assay, the call recorded for "COc1ccc(Cn2nc3c(c2-c2cc(OC)c(OC)c(OC)c2)-c2oncc2CC3)cc1" was what?
OUT: False

IN: Any idea what this test logged for "Cc1cn(-c2cc(C(=O)Nc3cccc(C#Cc4cccc5[nH]nc(N)c45)c3)cc(C(F)(F)F)c2)cn1" ?
OUT: False

IN: Tell me the assay call for Brc1ccc(C2CC(c3cccc(Nc4ccncc4)c3)=NN2c2ccccc2)cc1 (centres undefined) please.
OUT: False

IN: How was "COc1ccc(/C=C/C(=O)c2ccc(OC)c(OC)c2)cc1O" classified in this test?
OUT: False

IN: # lookup: test call for "O=C(CCN1CCCC1)Nc1ccc2c(Nc3ccccc3)c3ccccc3nc2c1"
OUT: False

IN: Query: recorded result category for "CN1CCCC1=Nc1ccccc1" in this test
OUT: False

IN: Look up the recorded call for O=C(OC(OC(=O)c1cc(Cl)cc(Cl)c1)c1cccc2ccccc12)c1ccccc1 (centres undefined) in this test.
OUT: False

IN: For "O=C1Nc2c(ccc(Cl)c2Cl)/C1=C/c1ccc([N+](=O)[O-])cc1" , which call appears in the assay record?
OUT: False

IN: Field: outcome | Entry: "Cc1ccc2nc3c(cc2c1)CSc1nnc(-c2ccc[nH]c2=S)n1N3"
OUT: False

IN: Would you mind telling me which call this test gave "O=C(Nc1cccc(Cl)c1)Oc1c(Br)c(Br)c(Br)c(Br)c1Br" ?
OUT: False

IN: Recorded test outcome, item "C=C1C(=O)O[C@H]2[C@H]1CC/C(CNC(=O)/C=C/c1ccccc1F)=C\CC[C@@]1(C)O[C@@H]21"
OUT: True

IN: What did this assay record as the result for "O=C(/C=C/c1ccc[nH]1)c1ccc(-n2ccc(C(F)(F)F)n2)cc1" ?
OUT: False

IN: State the result this test recorded for "Cc1nccc2c3ccc(OCc4cn(-c5ccc(Cl)cc5)nn4)cc3n(CCCc3ccccc3)c12" .
OUT: False

IN: Per the assay record, what outcome was assigned to "O=C(Nc1ccc(F)cc1)c1c(NC(=O)C(F)(F)F)sc2c1CCCCC2" ?
OUT: True

IN: Per the records of this test, what outcome belongs to "C#CCNC(=O)[C@H](Cc1ccccc1)NC(=O)[C@]12CC[C@@H](C(=C)C)[C@@H]1[C@H]1CC[C@@H]3[C@@]4(C)Cc5c([nH]c6ccccc56)C(C)(C)[C@@H]4CC[C@@]3(C)[C@]1(C)CC2" ?
OUT: False

IN: Please indicate how the test categorized "CN(C)CCCn1c2c(c3ccc(-c4ccn[nH]4)cc3c1=O)C(=O)c1ccccc1-2" .
OUT: False

IN: GET /call?item= CC(C)Cc1ccc(C(C)C(=O)NCc2ccc(Cn3c(=O)sn(-c4ccc(Cl)cc4)c3=O)cc2)cc1 (centres undefined) returns the recorded outcome of this test.
OUT: False

IN: Assay outcome for "Cc1ccc(-c2c(Br)c(OC(=O)CO[C@@H]3C[C@H](C)CC[C@H]3C(C)C)c(-c3ccc(C)cc3C)c(Br)c2OC(=O)CO[C@H]2C[C@@H](C)CC[C@@H]2C(C)C)c(C)c1" : what was it?
OUT: False

IN: Please let me know the test result on file for "Cc1nc2sc(C(=O)Nc3ccccc3)c(N)c2cc1C(=O)c1ccc(C(F)(F)F)cc1" .
OUT: False

IN: Recorded test call requested for CCC(C)C(N)C(=O)NNc1n[nH]c(=S)n1N (centres undefined)
OUT: False

IN: Which outcome was assigned to "CCN(CC)CCOC(COc1cc(C)cc(C)c1)COc1cc(C)cc(C)c1" in this test?
OUT: False

IN: Which outcome was assigned to "COc1ccc(-c2nc(N/N=C/c3ccco3)nc(N3CCOCC3)c2C#N)cc1" in this test?
OUT: False

IN: Would you mind telling me which call this test gave "OC1(c2ccc(Cl)c(C(F)(F)F)c2)CCN(CCCC(c2ccc(F)cc2)c2ccc(F)cc2)CC1" ?
OUT: True

IN: Given "CN1CCN(c2ccc3nc(-c4cc(C(C)(C)C)c(O)c(C(C)(C)C)c4)[nH]c3c2)CC1" , state the outcome it received in this test.
OUT: False

IN: Hey, what did the test say about "CC(=O)c1cccc(NS(=O)(=O)c2cccc(C(=O)Nc3ccc(Br)cc3)c2)c1" ?
OUT: False

IN: For "CN1CCN(c2ccc(NC3=C(Cl)C(=O)c4ncccc4C3=O)cc2C#N)CC1" , which call appears in the assay record?
OUT: False

IN: GET /call?item= COC(=O)CCCCCCCCC1(C)C=CC(C(C)O)=CC1 (centres undefined) returns the recorded outcome of this test.
OUT: False

IN: Please share the test call associated with "O=C(CSc1nc2sc3c(c2c(=O)n1Cc1ccccc1)CCCC3)N1CCN(c2ccccc2)CC1" .
OUT: False

IN: Give the logged outcome of this assay for the following molecule: "COc1ccc(/C=C/c2n[nH]c3ccc(N4CCOC4=O)cc23)cc1"
OUT: True

IN: For CC(=O)N1c2ccccc2NC2=C(C(=O)N(C)C2(C)C)C1C (centres undefined) , what call appears in the results of this test?
OUT: False

IN: Call for entry "Nc1c(Cl)cc([N+](=O)[O-])cc1Br" :
OUT: False

IN: Which outcome did this test record for the molecule "CC(=O)O[C@]1(C(C)=O)CC[C@H]2[C@@H]3C=C(Cl)C4=CC(=O)CC[C@]4(C)[C@H]3CC[C@@]21C" ?
OUT: False

IN: What classification did "CCNC(=O)c1[nH]cc(-c2ccc(OC)cc2)c1-c1cc(OC)c(OC)c(OC)c1" end up with in this test?
OUT: False

###

# System: BT-549 breast
# Protocol: NCI-60 one-dose screen, 48 h (100 = growth as untreated, 0 = no growth, -100 = all killed)
# Condition context: 10 µM unless noted
The panel holds about 83,000 compounds, 20% with a hit somewhere; the sample as a whole holds those more often.
Use 80% as the dividing line for growth, with the line itself on the Criterion met side and lower values as Criterion not met.

IN: Please indicate if the recorded growth for "c1cnc2nc3c(cc2c1)oc1ccccc13" meets or exceeds 80%.
OUT: Criterion met

IN: Could you verify whether the entry "COc1ccc(-c2nc(N/N=C/c3cccc(Br)c3)nc(N3CCOCC3)c2C#N)cc1" shows growth of no less than 80%?
OUT: Criterion met

IN: Would you say "CCCCCN1C=C/C(=C\C(=O)N(C)c2ccc(Br)cc2)c2ccccc21" shows growth at minimum 80%?
OUT: Criterion met

IN: Exam item: decide whether the reported growth for COc1ccc(C(O)c2cc3c(N)c(C(=O)Nc4cccc(OC)c4)sc3nc2C)cc1 (centres undefined) is at least 80%.
OUT: Criterion not met

IN: Has "O=C(Nc1nc2ccc(C(=O)N3CCN(c4ccc(Cl)c(Cl)c4)CC3)cc2s1)c1ccc(NCCc2ccccc2)c([N+](=O)[O-])c1" a recorded growth greater than or equal to 80%?
OUT: Criterion met

IN: Assess whether reported growth for "CCCCCN1C=C/C(=C\C(=O)N(C)c2cccc3ccccc23)c2ccccc21" sits at 80% or higher.
OUT: Criterion met

IN: Assess whether reported growth for "C=C(C)[C@@H]1CC[C@]2(CO)CC[C@]3(C)[C@H](CC[C@@H]4[C@@]5(C)CCCNC(C)(C)[C@@H]5CC[C@]43C)[C@@H]12" sits at 80% or higher.
OUT: Criterion not met

Cited source for all entries: PubChem BioAssay (NCI)
